Values compiled from PubChem BioAssay (NCI).

# Test system: NCI-H226 lung
# protocolSummary: NCI tumour cell line growth inhibition, 48 h
reportedProperty: TGI

Observed TGI on NCI-H226 lung, entry C[N+]1(CCC(=O)c2ccccc2)CCC2CCC(C2)C1 (stereo unspecified) , equals > 100 µM

Observed TGI on NCI-H226 lung, entry `N#Cc1ccccc1C#C/C=C\C#Cc1ccccc1N` , equals > 38.5 µM

Observed TGI on NCI-H226 lung, entry Cn1c2[n+](c3nc(N)[nH]c(=O)c31)C1OC(C2)C(O)C1O (stereo unspecified) , equals > 100 µM

Observed TGI on NCI-H226 lung, entry CN(C)C(=O)OC1=CC2CCC(C1)N2C (stereo unspecified) , equals > 100 µM

Observed TGI on NCI-H226 lung, entry `COc1cc(-c2ccc(NC(=O)SCCC(=O)O)cc2OC)ccc1NC(=O)SCCC(=O)O` , equals > 100 µM

Observed TGI on NCI-H226 lung, entry `O=Cc1c(-c2ccccc2)[nH]c2ccccc2c1=O` , equals > 100 µM

Observed TGI on NCI-H226 lung, entry `C=C1C(=O)O[C@H]2[C@H]1CC/C(Cn1cc(-c3cccc(Cl)c3)nn1)=C\CC[C@@]1(C)O[C@@H]21` , equals 3.75 µM

Observed TGI on NCI-H226 lung, entry `COc1cc(OC)c2c(=O)c3c([N+](=O)[O-])cccc3n(C)c2c1` , equals > 100 µM

Observed TGI on NCI-H226 lung, entry `COc1ccc(-c2[nH]nc(N)c2-c2cc(OC)c3c(c2)OCO3)cc1` , equals > 100 µM

Observed TGI on NCI-H226 lung, entry `CC(=O)Nc1ccc(/C=C2\N=C(c3ccccc3)OC2=O)cc1` , equals > 100 µM

Observed TGI on NCI-H226 lung, entry `Cc1cc(=O)n(-c2c(C)cccc2Cl)c(/C=C(\O)c2ccncc2)n1` , equals > 100 µM

* * *

# Test system: 786-0 renal
# protocolSummary: NCI tumour cell line growth inhibition, 48 h
reportedProperty: TGI

Input O=C1/C(=C/c2[nH]ncc2-c2ccc(Cl)cc2)C(=O)N(c2ccccc2)C1c1ccccc1 (stereo unspecified) . Output TGI: 44.7 µM

Input `O=C(N/C(=C\c1ccccc1Cl)c1nc2ccccc2[nH]1)c1ccccc1` . Output TGI: > 100 µM

Input CC1(C(=O)O)C[C@](C)(C(=O)OCc2ccccc2)C[C@](C)(C(=O)OCc2ccccc2)C1 (stereo partly specified) . Output TGI: > 100 µM

Input `O=C1NC(=S)NC(=O)C1=Cc1ccc(-c2ccccc2)cc1` . Output TGI: > 100 µM

Input `CSC1=C(C(=O)Nc2ccc(C)cc2)C(N)=NC1=O` . Output TGI: > 100 µM

Input `O/C(=C\c1nc2ccccc2nc1/C=C(\O)c1ccc(F)cc1)c1ccc(F)cc1` . Output TGI: > 100 µM

Input `CCCCCC[C@@H](C)Nc1nc2ccccc2c2occc12` . Output TGI: 27.8 µM

Input `O=C1c2ccccc2C(=O)c2c1ccc1c(=O)n(-c3ccccc3C(F)(F)F)nnc21` . Output TGI: > 100 µM

Input `CN=C(N)N=Nc1c(O)[nH]c2ccccc12` . Output TGI: > 100 µM

Input CC(C)CC1c2[nH]c3ccccc3c2C[C@H]2C(=O)NC(CCCCNC(=O)OC(C)(C)C)C(=O)N12 (stereo partly specified) . Output TGI: 50.7 µM

Input `CN(C)/C=N\c1nncc2[nH]cnc12` . Output TGI: > 100 µM

Input COc1cc(C2SCC(=O)N2c2ccc(NC(C)=O)cc2)cc(OC)c1OC (stereo unspecified) . Output TGI: > 100 µM

Input CC(C)[Si]1(C(C)C)OCC2OC(n3c(C(=O)c4ccccc4)cc(=O)[nH]c3=O)CC2O[Si](C(C)C)(C(C)C)O1 (stereo unspecified) . Output TGI: 9.87 µM

Input `CCCCCCSCC/C(C)=N\OC` . Output TGI: > 100 µM

Input `CCOC(=O)/C(C#N)=C1\SS/C(=C(/C#N)C(=O)OCC)S1` . Output TGI: 34.1 µM

Input `OC(Cc1ccc2ccccc2n1)(C(F)(F)Cl)C(F)(F)Cl` . Output TGI: > 10 µM

Input `CC(=O)Oc1c(OC(C)C)c(C)c(O[Si](C(C)C)(C(C)C)C(C)C)c2[nH]c3ccccc3c12` . Output TGI: > 100 µM

Input `COC(=O)c1cc(NC(=O)c2cc(NC(=O)Cc3c[nH]c4ccccc34)cn2C)cn1C` . Output TGI: > 100 µM

Input `COc1ccc(Cl)cc1Nc1nc(C(F)(F)F)ccc1C(=O)N/N=C/c1cccnc1` . Output TGI: > 100 µM

Input `CCCCN=C(N)c1ccc(N2CCCN(c3ccc(C(N)=NCCCC)cc3)CC2)cc1` . Output TGI: > 100 µM

Input `NC(=O)c1nnsc1NN=O` . Output TGI: > 100 µM

* * *

Kindly state TGI for each of the entries shown.
# Test system: SK-OV-3 ovarian
# protocolSummary: NCI tumour cell line growth inhibition, 48 h

Observed TGI on SK-OV-3 ovarian, entry `CC(C)(C)NC(=O)[C@H]1CC[C@H]2[C@@H]3CC[C@H]4NC(=O)C=C[C@]4(C)[C@H]3CC[C@]12C` , equals > 100 µM

Observed TGI on SK-OV-3 ovarian, entry `COc1cccc(C=C2N=C(c3ccccc3)N(n3c(-c4ccccc4)nc4ccccc4c3=O)C2=O)c1` , equals > 100 µM

Observed TGI on SK-OV-3 ovarian, entry CC(c1ccccc1)[C@@H](C(=O)Nc1ccc(I)cc1F)N1C(=O)N[C@H](c2ccc(OC[C@H](O)CO)cc2)C1=O (some centres undefined) , equals > 25 µM

Observed TGI on SK-OV-3 ovarian, entry O=C1C2Cc3c(n(C(=O)c4ccccc4)c4ccccc34)CC2C(=O)N1c1ccc(Nc2ccc(N3C(=O)C4Cc5c(n(C(=O)c6ccccc6)c6ccccc56)CC4C3=O)cc2)cc1 (centres undefined) , equals > 100 µM

Observed TGI on SK-OV-3 ovarian, entry `O=C(/C=C/C(Cl)(Cl)Cl)Nc1ccc(Cl)cc1` , equals 34.6 µM

Observed TGI on SK-OV-3 ovarian, entry CCOC(=O)[C@@H]1ON2O[C@H](OC3CCCCC3c3ccccc3)C[C@H]3OC(=O)[C@@H]1C32 (some centres undefined) , equals > 100 µM

Observed TGI on SK-OV-3 ovarian, entry `C(=Nc1cnc2ccccc2c1)c1ccc2ccccc2n1` , equals > 100 µM

Observed TGI on SK-OV-3 ovarian, entry `COc1ccc(S(=O)(=O)N[C@H](C(=O)O)c2ccccc2)cc1` , equals > 100 µM

Observed TGI on SK-OV-3 ovarian, entry `CCCCNC(=NCc1ccccc1)NC#N` , equals > 100 µM

* * *

# Test system: KM12 colon
# protocolSummary: NCI tumour cell line growth inhibition, 48 h
Kindly state TGI for each of the entries shown.

Input `NC(=O)C(=CNC(=S)Nc1ccc(S(=O)(=O)Nc2ccccn2)cc1)C(N)=O` . Output TGI: > 100 µM

Input `CC1(C)OCN(c2ccc(S(N)(=O)=O)cc2)Cn2c1nc1ccccc12` . Output TGI: > 100 µM

Input COC(=O)C1=C(OC(=O)/C=C/c2ccc(Cl)cc2)C(C(=O)OC)[C@]2(O)[C@@H](C(=O)OC)[C@H]1C[C@@H](c1ccccc1)[C@@H]2C(=O)OC (some centres undefined) . Output TGI: > 100 µM

Input `CCCCCCCCCCCCCCCCc1c(C(=O)OC)nc(NN)[nH]c1=O` . Output TGI: > 50 µM

Input `Cc1ccc(-c2nc3cc(Cl)c(Cl)cc3nc2C#N)cc1` . Output TGI: > 100 µM

Input CCN(CC)c1ccc(C2Nc3ccc4ccccc4c3C3=C2C(=O)CCC3)cc1 (centres undefined) . Output TGI: > 100 µM

Input CC(=O)OCC1OC(OCc2ccccc2)C(Br)C(OC(C)=O)C1OC(C)=O (centres undefined) . Output TGI: > 100 µM

Input `NC(N)=NS(=O)(=O)c1ccc(NNC(=O)c2cccc3c(=O)c4ccccc4[nH]c23)cc1` . Output TGI: 57 µM

Input `C=C1C(=O)O[C@H]2[C@H]1CC/C(Cn1cc(-c3cccc(Cl)c3)nn1)=C\CC[C@@]1(C)O[C@@H]21` . Output TGI: 3.74 µM

* * *

# System: HCT-15 colon
# protocolSummary: NCI tumour cell line growth inhibition, 48 h; in the data active means GI50 below about 0.43 µM; inactive means the rest
Choose the fitting class; nothing outside active, inactive is accepted.

Task: Please indicate how the test categorized `COc1ccc(Cl)cc1Nc1nc(C(F)(F)F)ccc1C(=O)N/N=C/c1cccnc1` .
Output: inactive

Task: Please indicate how the test categorized `C[C@@H](NC(=O)c1ncnc(N)c1Cl)c1ncc(C(=O)Nc2cc(C(F)(F)F)c(Cl)cn2)s1` .
Output: inactive

Task: Please indicate how the test categorized CCCCCCCCCC(CCCC(O)CC(=O)O)OC1OC(COC2OC(C)C(OC(C)=O)C(O)C2O)C(O)C(O)C1OC1OC(CO)C(O)C(O)C1OC1OC(C)C(OC(=O)CC(C)C)C(O)C1O (configuration not stated) .
Output: inactive

Task: Please indicate how the test categorized `CCCCN=C(N)c1ccc(N2CCCN(c3ccc(C(N)=NCCCC)cc3)CC2)cc1` .
Output: inactive

Task: Please indicate how the test categorized `O=c1c2ccccc2nc(-c2ccccc2Cl)n1-c1nnc(C(F)(F)F)s1` .
Output: inactive

Task: Please indicate how the test categorized COc1ccccc1/C=C/C1=C(C)CCC(c2ccccc2OC)C1C (configuration not stated) .
Output: active

Task: Please indicate how the test categorized CCN(CC)CCN1C(=O)C2C3C(=O)CC(C)(CC3C)C2C1=O (configuration not stated) .
Output: inactive

Task: Please indicate how the test categorized `Cc1nc(-c2cnc(NC(C)C)n(C)c2=O)ccc1Oc1ccnc(-c2cnn(C)c2)c1` .
Output: inactive

Task: Please indicate how the test categorized CC(c1ccccc1)[C@@H](C(=O)Nc1ccc(I)cc1F)N1C(=O)N[C@H](c2ccc(OC[C@H](O)CO)cc2)C1=O (some centres not stated) .
Output: inactive

Task: Please indicate how the test categorized `Clc1ccc2ncc(-c3cccc(NC4CNC4)n3)n2c1` .
Output: inactive

Task: Please indicate how the test categorized `COc1ccc2nc3cc([N+](=O)[O-])ccc3c(NNc3ccccc3)c2c1` .
Output: inactive

Task: Please indicate how the test categorized `COc1cc(/C=C/C(=O)N2CCC=CC2=O)cc(OC)c1OC` .
Output: inactive

Task: Please indicate how the test categorized `COc1ccc(Cn2cc3c(c2)-c2oncc2CC3)cc1OC` .
Output: active

Task: Please indicate how the test categorized `O=C1c2cccnc2C(=O)c2c1c(C(=O)NCCn1ccnc1)c1ccccn21` .
Output: inactive

Task: Please indicate how the test categorized `N#Cc1ccccc1C#C/C=C\C#CC#C/C=C\C#Cc1ccccc1C#N` .
Output: inactive

Task: Please indicate how the test categorized `O=C(Nc1cccc(-n2cc(-c3ccncc3)c(-c3ccc(O)c(Cl)c3)n2)c1)c1cc(C(F)(F)F)cc(C(F)(F)F)c1` .
Output: inactive

Task: Please indicate how the test categorized `COc1ccc2nc(-c3ccccc3)cc(Nc3cccc(C(C)=O)c3)c2c1` .
Output: inactive
